This collection of values is drawn from paper PMC10714399.

Answer each item with its documented solubility kinetic at 30 min.
# experiment: Kinetic solubility estimation using nephelometry (Monash)
# Assay type: physicochemical
# run-conditions: pH 6.5 phosphate buffer, pH 6.5, aqueous buffer, kinetic from dmso stock; read-out: Sol (pH 6.5) (Monash)

Exercise: What solubility kinetic at 30 min value was documented for this molecule, `c1ccc(-c2nc3n(c2-c2ccc4sccc4c2)CCC3)nc1` ?
Key: 12.5 to 25 µg/mL

Exercise: What solubility kinetic at 30 min value was documented for this molecule, `c1ccc(-c2nc3n(c2-c2ccc4occc4c2)CCC3)nc1` ?
Key: 25 to 50 µg/mL

Exercise: What solubility kinetic at 30 min value was documented for this molecule, `c1ccc(-c2nc3n(c2-c2ccc4c(c2)OCO4)CCS3)nc1` ?
Key: 12.5 to 25 µg/mL

Exercise: What solubility kinetic at 30 min value was documented for this molecule, `c1ccc(-c2nc3n(c2-c2ccc4c(c2)OCO4)CCC3)nc1` ?
Key: 50 to 100 µg/mL

Exercise: What solubility kinetic at 30 min value was documented for this molecule, `c1ccc(-c2nc3ccccn3c2-c2ccc3c(c2)OCO3)nc1` ?
Key: 25 to 50 µg/mL
